Reference for the values: patent US20080125432A1

readout: melting point

Task: What melting point value was documented for this molecule, COc1ccccc1Nc1nc(C)c(C(=O)NCc2ccc(-c3ccccc3)cc2)s1 [Compound 145] ?
Result: 189.6 to 191.2 °C

Task: # query: melting point of entry COc1ccccc1Nc1ncc(C(=O)NCc2ccccc2)[nH]1 [Compound 224]
Result: 212.5 to 213.9 °C

Task: May I ask what melting point has been recorded for COc1ccccc1Nc1nc(C)c(C(=O)NCc2cccc(OC(F)(F)F)c2)s1 [Compound 158] ?
Result: 96.1 to 100.3 °C

Task: Which melting point value belongs to Cc1nc(Nc2ccc3c(c2)OCCO3)sc1C(=O)N[C@H]1CCC[C@@H]1OCc1ccccc1 [Compound 95] ?
Result: 178 to 180.1 °C

Task: # query: melting point of entry COc1ccccc1Nc1nc(C)c(C(=O)NC2CCc3ccccc32)s1 (stereo not drawn) [Compound 164]
Result: 146.2 to 148 °C

Task: Bench note: what melting point did CC[C@@H](NC(=O)c1sc(Nc2ccccc2OC)nc1C)c1ccccc1 [Compound 131] show?
Result: 57.7 to 59.6 °C

Task: State the recorded melting point for this entry: COc1ccccc1Nc1nc(C)c(C(=O)N2CCN(Cc3ccccc3)C[C@@H]2Cc2ccccc2)s1 [Compound 125]
Result: 89.3 to 92.5 °C

Task: Sample Cc1nc(NC(=O)c2ccc(C#N)cc2)sc1C(=O)N[C@H]1CCC[C@@H]1OCc1ccccc1 [Compound 181] — what was its melting point?
Result: 177.2 to 181.4 °C

Task: Request the reported melting point associated with COc1ccccc1Nc1nc(C)c(C(=O)N2CCCCC2Cc2ccccc2)s1 (stereo not drawn) [Compound 86]
Result: 93.2 to 95.6 °C

Task: For the molecule COC[C@@H](NC(=O)c1sc(Nc2ccccc2OC)nc1C)c1ccccc1 [Compound 149] , what melting point is on record?
Result: 118.8 to 129.6 °C

Task: Endpoint output: melting point of COc1ccccc1Nc1nc(C)c(C(=O)NCc2ccccc2Br)s1 [Compound 146] . Value?
Result: 159.6 to 164 °C

----------
Measured melting point values are reported for all entries that follow.

A selection of reference data follows.
>>> value_reported("COc1ccccc1Nc1nc(C)c(C(=O)NCc2ccc(F)c(C(F)(F)F)c2)o1")
"71.6 to 84.3 °C"
>>> value_reported("COc1ccccc1Nc1nc(C)c(C(=O)NCc2ccsc2)s1")
"153.4 to 154.8 °C"
>>> value_reported("COc1ccccc1Nc1nc(C)c(C(=O)NCc2ccc(OC(F)(F)F)cc2)s1")
"135.2 to 138.9 °C"

Now for the molecule whose melting point we want.
Task: Consider the molecule `Cc1nc(Nc2ccc3occc3c2)sc1C(=O)N[C@H]1CCC[C@@H]1OCc1ccccc1` and give its measured melting point.
Result: 164.4 to 169.3 °C
